assay.remarks: HepG2 cell viability effects, profiling panel, calcein-AM fluorescence, 48 h, basal (AID 1164); further: test concentration not given here
condition.summary: higher = more signal
Decide using z-score: a value greater than or equal to 0.5 is yes (1), a smaller one is no (0).

# molecule, classification
rows = [
    ("C=CCN1C(=O)[C@]2(O[C@H](CCn3cc([C@H](O)c4ccccc4)nn3)[C@@H]([Si](C)(C)c3ccc(OC)cc3)[C@@H]2C)c2ccccc21", "no (0)"),
    ("C[C@H]1C2[C@H](Cc3ccccc3)NC(=O)[C@]23C(=O)N[C@H](Cc2ccccc2)C(=O)N2CCC[C@H]2C(=O)NC/C=C\\C/C=C/C3[C@@H]2O[C@]12C (some centres not stated)", "no (0)"),
    ("O=C1C2C=CC(C(O)Cc3ccccc3)N(n3cnnc3)C2C(=O)N1Cc1ccccc1 (configuration not stated)", "no (0)"),
    ("O[C@@H](Cc1ccccc1)[C@H]1C2C=CCCC=C2CN1Cc1cccc(Cl)c1 (some centres not stated)", "yes (1)"),
    ("C=C(C(=O)CC[C@@H](OC(=O)c1cccnc1)c1ccccc1OCCO)C(C)C", "no (0)"),
    ("Cc1ccc(S[C@]2(C(=O)O)CC(=O)N(C(C)C)[C@@H]2c2ccc(CO)cc2I)cc1", "yes (1)"),
    ("CC(C)N1C(=O)c2ccccc2[C@](C)(C(=O)NCCN2CCOCC2)[C@@H]1c1ccc(CO)cc1", "no (0)"),
    ("O=C1O[C@H](c2ccccc2)[C@H](c2ccccc2)N2[C@H]1[C@@H](C(=O)N1CCCCCCC1)[C@]1(C(=O)Nc3ccc(C#CCCO)cc31)[C@H]2c1ccccc1OCCO", "yes (1)"),
    ("COCCOC(=O)N1C(=O)[C@@]2(c3cc(C#CCC(C(=O)OC)C(=O)OC)ccc31)[C@H](C(=O)N1CCN(c3ncccn3)CC1)[C@H]1C(=O)O[C@H](c3ccccc3)[C@H](c3ccccc3)N1[C@@H]2c1ccccc1OCCO", "no (0)"),
    ("COc1ccc([Si](C)(C)[C@@H]2[C@@H](CCO)O[C@]3(C(=O)N(Cc4ccc(N(C=O)c5ccccc5)cc4)c4ccccc43)[C@H]2C)cc1", "no (0)"),
    ("COCCCNC(=O)[C@@H]1c2ccccc2C(=O)N(Cc2ccccc2Cl)[C@H]1c1ccc(CO)cc1", "yes (1)"),
    ("CCCCC(CC)C(O)C1C=CC2C(=O)N(Cc3ccccc3)C(=O)C2N1n1cnnc1 (configuration not stated)", "no (0)"),
    ("COc1cc(NN2C(C(O)c3ccco3)C=CC3C(=O)N(c4ccccc4)C(=O)C32)cc(OC)c1OC (configuration not stated)", "no (0)"),
    ("CCS[C@H]1[C@@H](C(=O)O)[C@H](c2ccc(C)cc2)N(S(=O)(=O)c2ccc(C)cc2)[C@@H]1CC", "yes (1)"),
    ("NCCCCCNC(=O)[C@@H]1C[C@@H]2C(=O)N[C@@H](Cc3ccccc3)C(=O)N2[C@@H]1c1ccc(O)cc1", "no (0)"),
    ("COC(=O)[C@@]1(Cc2ccc(OC)cc2)[C@@H]2C(=CC(=O)[C@H]2CC(=O)C(=O)N2CCCC2)CN1C(=O)c1ccccc1", "no (0)"),
    ("C=C(CC1([C@@H](NP(=O)(c2ccccc2)c2ccccc2)[C@H]2C[C@@H]2CCCC)CC1)c1ccccc1", "no (0)"),
    ("CC(C)C(O)C1C=CC2C(=O)NC(=O)C2N1Nc1ccc(Cl)cc1Cl (configuration not stated)", "no (0)"),
    ("C[N+](C)(C)CCCCNC(=O)[C@H]1C[C@H]2C(=O)N3CCC[C@H]3C(=O)N2[C@H]1c1cccc(OCCO)c1", "no (0)"),
    ("C=C(CCCC)/C(=C/C[C@@H](OC(=O)c1ccncc1)c1ccc(OCCO)cc1)c1cc(C(=O)OC)ccc1OC", "yes (1)"),
    ("C=C(CCCC)/C(=C/C[C@H](OC(C)=O)c1ccccc1OCCO)c1cc(C(=O)OC)ccc1OC", "no (0)"),
    ("O=C(CS)NCCCCCCNC(=O)[C@@H]1C[C@@H]2C(=O)NCC(=O)N2[C@@H]1c1cccc(OCCO)c1", "no (0)"),
    ("O=C1N(Cc2ccccc2)c2ccccc2[C@@H]2OC(c3ccc(OCCCO)cc3)=N[C@]12CCS(=O)(=O)c1ccccc1", "no (0)"),
    ("NCCCCCCNC(=O)[C@@H]1C[C@@H]2C(=O)NCC(=O)N2[C@@H]1c1ccc(O)cc1", "no (0)"),
    ("COC(=O)[C@]1(CCC(=O)OC(C)(C)C)N=C(c2ccc(OCCCO)cc2)O[C@@H]1c1ccccc1CN=[N+]=[N-]", "no (0)"),
    ("C=CCC(OC(C)=O)[C@@H]1[C@@H](N(Cc2cccc3ccccc23)C(=O)c2ccc(-c3ccccc3)cc2)c2cc(OCCCO)ccc2N1C(=O)c1ccc2ccccc2c1 (some centres not stated)", "no (0)"),
]

* * *

assay.remarks: compound binding in COS7 lysate, probe aLAP1, primary screen, cell lysate, small-molecule microarray (AID 1124);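 further: lysate comes from COS7 cells expressing LAP1 and is applied at 0.3 µg/mL; score merges spot fluorescence near 667 nm with signal-to-noise over triplicate slides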
condition.summary: probe aLAP1, fluorescence, higher = more signal
Cut-off 0.05 on composite z-score, inclusive. At or above means condition met; below means condition not met.

# molecule, classification
rows = [
    ("COC(=O)[C@@]1(Cc2ccc(F)cc2)[C@H]2c3cc(C(=O)N(C)C)n(Cc4ccccc4)c3C[C@H]2CN1C(=O)c1ccccc1", "condition met"),
    ("CCOC(=O)C[C@H]1[C@H](OC(=O)c2ccc(C(=O)c3ccccc3)cc2)[C@@H](NC(=O)c2ccc3ccccc3c2)c2cc(OCCCO)ccc2N1C(=O)Cc1ccc(OC)cc1", "condition not met"),
    ("COCCOC(=O)N1C(=O)[C@@]2(c3cc(C#CC4(O)CCCCCC4)ccc31)[C@H](c1ccc(OCCO)cc1)N1[C@H](c3ccccc3)[C@H](c3ccccc3)OC(=O)[C@H]1[C@@H]2C(=O)N1CCN(c2ncccn2)CC1", "condition not met"),
    ("CCc1cccc(NC(=O)O[C@H]2[C@H](OC(=O)Nc3ccccc3-c3ccccc3)[C@@H](OC(=O)Nc3ccccc3-c3ccccc3)[C@@H](OC)O[C@@H]2CO)c1", "condition met"),
    ("[N-]=[N+]=Nc1ccccc1[C@H]1OC(c2ccc(OCCCO)cc2)=N[C@@]1(CCS(=O)(=O)c1ccccc1)C(=O)NCC(O)CO (some centres not stated)", "condition met"),
    ("C=C(COC)/C(=C/C[C@@H](OC(=O)c1ccncc1)c1ccc(CO)o1)c1cc(C(=O)OC)ccc1OC", "condition met"),
    ("C=CC[C@]1(C(=O)NCCCOC)N=C(c2ccc(OCCCO)cc2)O[C@H]1c1ccccc1CN=[N+]=[N-]", "condition met"),
    ("COCC(=C=CC[C@@H](O)c1cccc(OCCO)c1)C[C@@H](O)c1ccccn1", "condition met"),
    ("CC(=O)NCCCC[C@@H]1NC(=O)[C@H]2C[C@@H](C(=O)NCCCCCCNC(=O)CS)[C@@H](c3ccc(O)cc3)N2C1=O", "condition not met"),
    ("CC(C)NC(=O)[C@@]1(C)c2ccccc2C(=O)N(Cc2cc(C(F)(F)F)cc(C(F)(F)F)c2)[C@H]1c1ccc(CO)cc1", "condition not met"),
    ("COCCOC(=O)N1C(=O)[C@@]2(c3cc(C#CCNC(N)=O)ccc31)[C@H](C(=O)N1CCN(c3ncccn3)CC1)[C@H]1C(=O)O[C@H](c3ccccc3)[C@H](c3ccccc3)N1[C@@H]2c1ccc(OCCO)cc1", "condition met"),
]

* * *

assay.remarks: PSAC antagonists in infected red cells, primary screen, cell-based, P. falciparum Indochina, OD700, 2 h (AID 1155);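 further: lysis reports solute entry through the parasite surface anion channel PSAC; channel blockers reduce lysis of infected cells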
condition.summary: P. falciparum Indochina infected erythrocytes, osmotic lysis OD700, called active from +8 up or from −8 down
Active and inactive are the calls of the source.
Classes used: active, inactive

# smiles.str, classification
data = [
    ("[N-]=[N+]=NCc1ccccc1C[C@]1(C(N)=O)COC(c2ccc(OCCCO)cc2)=N1", "inactive"),
    ("Cc1ccc(S[C@]2(C(=O)NC3CC3)CC(=O)N(Cc3ccccc3)[C@@H]2c2ccc(CO)cc2I)cc1", "inactive"),
    ("C=CCN1C(=O)[C@@]2(CC=C)N=C(c3ccc(OCCCO)cc3)O[C@H]2c2ccccc21", "active"),
]

* * *

Tested on: PRMT1 (protein arginine N-methyltransferase 1)
assay.remarks: PRMT1 binders on small-molecule microarrays, primary screen, biochemical, small-molecule microarray, 635 nm fluorescence (AID 1088);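 further: binding of Prmt1 protein to compounds spotted on small-molecule microarray slides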
condition.summary: small-molecule microarray binding, higher = more signal

# molecule, composite z-score
rows = [
    ("CO[C@H]1O[C@H](CO)[C@@H](OC(=O)Nc2ccccc2)[C@H](OC(=O)Nc2ccccc2)[C@@H]1OC(=O)Nc1ccccc1", 1.53),
    ("COC(=O)[C@@]1(Cc2ccc(OC)cc2)[C@H]2c3cc(C(=O)N(C)C)n(CCc4ccccn4)c3C[C@H]2CN1C(=O)c1ccccc1", -0.663),
    ("CCN(CC)c1ccc(N2CC=CC34O[C@@H]5C=CCCOC(=O)C5[C@H]3C(=O)N(CCCCCCO)[C@@H]4C2=O)cc1 (some centres not stated)", -0.171),
    ("CC(=O)NCCCC[C@@H]1NC(=O)[C@H]2C[C@@H](C(=O)NCCCCCCNC(=O)CS)[C@@H](c3ccc(O)cc3)N2C1=O", 1.15),
    ("C=CCOC(=O)[C@H]1[C@@H]2C(=O)O[C@@H](c3ccccc3)[C@@H](c3ccccc3)N2[C@@H](c2ccc(OCCOC(=O)[C@H]3C[C@H]4C(=O)N[C@@H](CCCCNC(C)=O)C(=O)N4[C@H]3c3ccc(O)cc3)cc2)[C@]12C(=O)Nc1ccc(I)cc12", 1.57),
    ("C=CCOC(=O)[C@H]1[C@@H]2C(=O)O[C@@H](c3ccccc3)[C@@H](c3ccccc3)N2[C@@H](c2ccc(OCCOC(=O)[C@@H]3C[C@@H]4C(=O)N[C@@H](CC(C)C)C(=O)N4[C@@H]3c3ccc(O)cc3)cc2)[C@]12C(=O)Nc1ccccc12", 1.53),
    ("O=C(c1ccccc1)N1C(=O)[C@@]2(Cc3ccccc31)N=C(c1ccc(OCCCO)cc1)O[C@H]2c1ccccc1", 1.55),
]
